experiment: soluble on expression in E. coli; label from the status in PepcDB or PDB records
QUANTITY MEASURED: soluble on expression in E. coli

# annotated cases, reported soluble on expression in E. coli shown
MKIPDLTNYEHLIGGLCGGVTSTVVCHPFDLLKIRFSANEGSSLRPQYSSYADAVRKIVRVEGVRGLYQGWTPSLIGASLSWGLYFQWYNSLRTKIYENFSTGSKLANNLISGCISGSAIMCITNPIWLTKTRLCLQYENQQSKKYAGMMDCLKKTVKQEGFFGLYRGFVTGVIGTTHGAVQIAAYSWIIDKRCQSQGLPKDSFLSQTDYVIASSTSKVLATTITFPYQVLRTRMQDHNTDSRGVWKTTLKTIHNEGIGGLWKGCLIANVRQLPAAVVTFLTYENVKRLVGMTKQI; not soluble
MGSDKIHHHHHHMIAGVPSVHPLPNMNHVEVKGVDLPAQIAQQVRKLINRGTLAPGLQLRQSDLADRFGISRVPVREALKLLAAEGIIEHDPNRGFFVAPLSTDEARQLYRYRFLLERELLKTVEWPDSTQMKALKAMLERLDSYLDSGQRAEWIDEYQDFYALLFDLSPDKILRREAIRLIRLTDRYRALASEVRVPGEQRTAHLEHTLLAAMSKRDRAQLIRGFEREREKILASMLARIDARGL; not soluble
MGSDKIHHHHHHMTETTSQMRREVLEIPAAIDRLLSQGTPEIARIAAAVAKADPRFAVTVARGSSDHACTFLKYALELELGLPVASIGPSVASIYGAQLKLANSITLSVSQSGKSPDIVAMSRAATEGDSFTVAITNDAQSPLSDASSHTIDIHAGPEISVAATKTFVTSAAAGLILLAEWKDDDILRAALRGLPECLSKAATHDWPDLRAAIGSASSLFTLGRGPAWAISNEAALKFKETCQIHAESYSSAEVLHGPVSIVGGGFPVLCFASGDAAEASVTDVADQLAAKGARVFVTSDKADTAHCLPHVRTGHPLTDPLALIVSFYAMIEKVAAERGVNPDAPRHLNKVTETV; not soluble
MERIERISEEIKREISDIIQNELKDPRLSKLISITEVNVTKDLRYAKVYVSVMGSEEEKANSLEGLKSAAGFIRREIGRRVQLRYTPEIHFELDNSIERGAYITKLINETSAQNKGSKDPEDT; soluble

Hey, quick one: what's soluble on expression in E. coli for each of these?
1. SETQSFVVSVAGSDRVGIVHDFSWALKNISANVESSRMACLGGDFAMIVLVSLNAKDGKLIQSALESALPGFQISTRRASSVAERHVSPDTREYELYVEGPDSEGIVEAVTAVLAKKGANIVELETETLPAPFAGFTLFRMGSRVAFPFPLYQEVVTALSRVEEEFGVDIDLEEVVEGEDSEEDDDSPNSPVGRH
2. MFTAGSATVTPKLNGVAGPAFQVIKDSLTLGLNALTLTDVTKNAAYGVEIESLVLEINAPAA
3. MGSDKIHHHHHHMTKAKYQQIEEILRRQITNGHYQEGDLIPKEFDLAEKYQVSRPTIRHAVQDLVNQGYLERRKHVGTIVKQTKIGQEFTHVLQSYNSEMSQKGLIAQTQVLFFKKEKASAEVAKALDLTENAPVYKLTRLRSADGNPIVLVTTYLPASKLSDFEKIDFTQQSLYQELEKRSLPIVHVKRKLEVKSADEMTANLLNIEEKVPIFYFHTYGYTKGEVPLEYSIAMYRGDENYFVIDLKR

**Result**
1. soluble
2. soluble
3. not soluble
